- Test system: Notch cleavage
- test-description: mNotchΔE Notch-1 cleavage assay in N2A cells (western blot, NICD)
- Format: cell-based
- particulars: N2A cells over-expressing mNotchΔE, 3 hours
parameter: Notch cleavage

COc1cc(OC)c(/C=C2/C(=O)Nc3ccccc32)c(OC)c1 ... not affected
NC(=O)c1ccc(-c2nc(-c3ccc4c(c3)OCCO4)c(-c3ccccn3)[nH]2)cc1 ... not affected
NCCNS(=O)(=O)c1ccc(Cl)c2ccncc12 ... not affected
